EXPERIMENT NOTES: qHTS screen for small molecules that inhibit ELG1-dependent DNA repair in human embryonic kidney (HEK293T) cells expressing luciferase-tagged ELG1; also: nearly all actives have a fitted effect of over 55% in size
RUN CONDITIONS: HEK293T ELG1-luciferase reporter, luminescence, 16 h, DNA damage induced by 5-fluorouridine; series mostly up to 46.1 µM
The campaign covered roughly 330,000 compounds. About 7,700 (2.3%) were called active. Roughly 26% stayed inconclusive and do not appear here. For the sample, actives were picked, then their nearest neighbours and some compounds at random.
ASSAY METRIC: outcome

COMPOUND: CCOC(CNC(=O)C1CCN(S(=O)(=O)c2ccc3nc4c(c(C(=O)O)c3c2)CC(C)CC4)CC1)OCC (stereo not given)
ASSAY METRIC: outcome
READING: inactive

COMPOUND: COc1ccc(C(=O)NC2CC2)cc1OC1CCN(C/C=C/c2ccccc2)CC1
ASSAY METRIC: outcome
READING: inactive

COMPOUND: COc1ccc(CCC(=O)N2CCN(S(=O)(=O)c3ccc(OC)cc3)CC2)cc1
ASSAY METRIC: outcome
READING: inactive

COMPOUND: Cc1ccc(/C=C2/SC(=S)N(CCC(=O)NCCCN3CCOCC3)C2=O)cc1
ASSAY METRIC: outcome
READING: inactive

GET /values?readout=outcome&item= COc1ccc(-c2noc(CCCC(=O)NC3CCCC3)n2)cc1OC
inactive

###

EXPERIMENT NOTES: qHTS screen for small molecules that inhibit ELG1-dependent DNA repair in human embryonic kidney (HEK293T) cells expressing luciferase-tagged ELG1; also: nearly all actives have a fitted effect of over 55% in size; also: potency is read from the fitted curve at half-maximal effect
RUN CONDITIONS: HEK293T ELG1-luciferase reporter, luminescence, 16 h, DNA damage induced by 5-fluorouridine; series mostly up to 46.1 µM
The campaign covered roughly 330,000 compounds. About 7,700 (2.3%) were called active. Another 26% or so got no clear call; they are omitted. This excerpt belongs to a sample that is enriched for actives.
ASSAY METRIC: Potency

The cases that follow already have their Potency on record.
MOLECULE: C#CCOCCOCCOCCNc1nc(N2CCN(C(=O)[C@H](CCCN=C(N)N)n3cc(C(N)[C@@H](C)CC)nn3)CC2)nc(N2CCN(C(=O)[C@H](CO)n3cc([C@@H](N)C(C)C)nn3)CC2)n1 (some centres undefined)
Potency: inactive
--
MOLECULE: COc1cc(C(=O)NCc2ccc(-n3cccc3)cc2)cc(OC)c1OC
Potency: inactive
--
MOLECULE: COc1ccccc1C(CNC(=O)c1cccc(S(=O)(=O)Nc2ccc(F)cc2)c1)N(C)C (centres undefined)
Potency: inactive
--
MOLECULE: O=C(C1CCCN(S(=O)(=O)c2ccccc2)C1)N1CCN(c2ccc(F)cc2)CC1 (centres undefined)
Potency: 11.6 µM (active)

I am curious: what Potency value has been reported for COc1ccc(C(=O)N2CCCCC2C(=O)Nc2ccc(-n3nc(C)cc3C)cc2)o1 (centres undefined) ?
inactive

What about this molecule? COc1cc(C(=O)NCCOC(=O)c2cccc(N(C)C)c2)cc(OC)c1OC
11.6 µM (active)

// query: COCCN1C(=O)C(=O)/C(=C(/O)c2ccc(S(=O)(=O)N3CCCCC3)cc2)C1c1ccc(OC)c(OC)c1 (centres undefined)
inactive

###

EXPERIMENT NOTES: qHTS screen for small molecules that inhibit ELG1-dependent DNA repair in human embryonic kidney (HEK293T) cells expressing luciferase-tagged ELG1; also: nearly all actives have a fitted effect of over 55% in size
RUN CONDITIONS: HEK293T ELG1-luciferase reporter, luminescence, 16 h, DNA damage induced by 5-fluorouridine; series mostly up to 46.1 µM
Source text: NIH Molecular Libraries Probe Production Network [MLPCN] NIH Chemical Genomics Center [NCGC] MLPCN Grant: 1 R03 MH092164-01 Assay Provider: Kyungjae Myung, NHGRI, NIH Keywords: MLPCN, qHTS, NCGC, genotoxicity, cancer Assay Overview: Cancer cells divide rapidly compared to normal cells in the body. During cell division, cancer cells need to duplicate their genome by DNA replication. […] With this in mind, we developed a quantitative high-throughput ELG1-luciferase reporter gene assay. […]
Out of some 330,000 compounds screened, about 7,700 (2.3%) were called active. Inconclusive results (about 26%) are left out. Calls follow the shape of the dose curve; as a rule, active = well fitted inhibition curve with a large enough effect; inconclusive = small, poorly fitted or top-dose-only effect, or effect the other way; inactive = flat fitted curve, though single readings scatter. This is one part of a sample in which actives are shown more often than they occur.
Outcomes you can answer with include only these: YES for active, NO for inactive

COMPOUND: CCOc1ccc(CCNC(=O)COC(=O)c2c(OC)cccc2OC)cc1OCC
DISCRETE LABEL: NO
//
COMPOUND: NC(=O)c1nsc(C(=O)N(CC(=O)NCc2ccc(F)cc2)Cc2ccco2)c1N
DISCRETE LABEL: NO
//
COMPOUND: COc1ccc(-c2cc(C(=O)NCc3ccco3)no2)cc1OC
DISCRETE LABEL: NO
//
COMPOUND: Cc1ccccc1N1CCN(C2CCCN(C(=O)c3cn4c(C)cccc4n3)C2)CC1 (configuration not stated)
DISCRETE LABEL: YES

Field: outcome | Entry: COc1ccc(NS(=O)(=O)c2ccc(C)c(C(=O)NCC(c3cccs3)N3CCOCC3)c2)cc1 (configuration not stated)
NO
